Hey, just so you know, these numbers are from patent US20250115569A1.

Target: Cav2.3 (Homo sapiens, UniProt Q15878)
Sequence (Q15878 whole entry, looked up): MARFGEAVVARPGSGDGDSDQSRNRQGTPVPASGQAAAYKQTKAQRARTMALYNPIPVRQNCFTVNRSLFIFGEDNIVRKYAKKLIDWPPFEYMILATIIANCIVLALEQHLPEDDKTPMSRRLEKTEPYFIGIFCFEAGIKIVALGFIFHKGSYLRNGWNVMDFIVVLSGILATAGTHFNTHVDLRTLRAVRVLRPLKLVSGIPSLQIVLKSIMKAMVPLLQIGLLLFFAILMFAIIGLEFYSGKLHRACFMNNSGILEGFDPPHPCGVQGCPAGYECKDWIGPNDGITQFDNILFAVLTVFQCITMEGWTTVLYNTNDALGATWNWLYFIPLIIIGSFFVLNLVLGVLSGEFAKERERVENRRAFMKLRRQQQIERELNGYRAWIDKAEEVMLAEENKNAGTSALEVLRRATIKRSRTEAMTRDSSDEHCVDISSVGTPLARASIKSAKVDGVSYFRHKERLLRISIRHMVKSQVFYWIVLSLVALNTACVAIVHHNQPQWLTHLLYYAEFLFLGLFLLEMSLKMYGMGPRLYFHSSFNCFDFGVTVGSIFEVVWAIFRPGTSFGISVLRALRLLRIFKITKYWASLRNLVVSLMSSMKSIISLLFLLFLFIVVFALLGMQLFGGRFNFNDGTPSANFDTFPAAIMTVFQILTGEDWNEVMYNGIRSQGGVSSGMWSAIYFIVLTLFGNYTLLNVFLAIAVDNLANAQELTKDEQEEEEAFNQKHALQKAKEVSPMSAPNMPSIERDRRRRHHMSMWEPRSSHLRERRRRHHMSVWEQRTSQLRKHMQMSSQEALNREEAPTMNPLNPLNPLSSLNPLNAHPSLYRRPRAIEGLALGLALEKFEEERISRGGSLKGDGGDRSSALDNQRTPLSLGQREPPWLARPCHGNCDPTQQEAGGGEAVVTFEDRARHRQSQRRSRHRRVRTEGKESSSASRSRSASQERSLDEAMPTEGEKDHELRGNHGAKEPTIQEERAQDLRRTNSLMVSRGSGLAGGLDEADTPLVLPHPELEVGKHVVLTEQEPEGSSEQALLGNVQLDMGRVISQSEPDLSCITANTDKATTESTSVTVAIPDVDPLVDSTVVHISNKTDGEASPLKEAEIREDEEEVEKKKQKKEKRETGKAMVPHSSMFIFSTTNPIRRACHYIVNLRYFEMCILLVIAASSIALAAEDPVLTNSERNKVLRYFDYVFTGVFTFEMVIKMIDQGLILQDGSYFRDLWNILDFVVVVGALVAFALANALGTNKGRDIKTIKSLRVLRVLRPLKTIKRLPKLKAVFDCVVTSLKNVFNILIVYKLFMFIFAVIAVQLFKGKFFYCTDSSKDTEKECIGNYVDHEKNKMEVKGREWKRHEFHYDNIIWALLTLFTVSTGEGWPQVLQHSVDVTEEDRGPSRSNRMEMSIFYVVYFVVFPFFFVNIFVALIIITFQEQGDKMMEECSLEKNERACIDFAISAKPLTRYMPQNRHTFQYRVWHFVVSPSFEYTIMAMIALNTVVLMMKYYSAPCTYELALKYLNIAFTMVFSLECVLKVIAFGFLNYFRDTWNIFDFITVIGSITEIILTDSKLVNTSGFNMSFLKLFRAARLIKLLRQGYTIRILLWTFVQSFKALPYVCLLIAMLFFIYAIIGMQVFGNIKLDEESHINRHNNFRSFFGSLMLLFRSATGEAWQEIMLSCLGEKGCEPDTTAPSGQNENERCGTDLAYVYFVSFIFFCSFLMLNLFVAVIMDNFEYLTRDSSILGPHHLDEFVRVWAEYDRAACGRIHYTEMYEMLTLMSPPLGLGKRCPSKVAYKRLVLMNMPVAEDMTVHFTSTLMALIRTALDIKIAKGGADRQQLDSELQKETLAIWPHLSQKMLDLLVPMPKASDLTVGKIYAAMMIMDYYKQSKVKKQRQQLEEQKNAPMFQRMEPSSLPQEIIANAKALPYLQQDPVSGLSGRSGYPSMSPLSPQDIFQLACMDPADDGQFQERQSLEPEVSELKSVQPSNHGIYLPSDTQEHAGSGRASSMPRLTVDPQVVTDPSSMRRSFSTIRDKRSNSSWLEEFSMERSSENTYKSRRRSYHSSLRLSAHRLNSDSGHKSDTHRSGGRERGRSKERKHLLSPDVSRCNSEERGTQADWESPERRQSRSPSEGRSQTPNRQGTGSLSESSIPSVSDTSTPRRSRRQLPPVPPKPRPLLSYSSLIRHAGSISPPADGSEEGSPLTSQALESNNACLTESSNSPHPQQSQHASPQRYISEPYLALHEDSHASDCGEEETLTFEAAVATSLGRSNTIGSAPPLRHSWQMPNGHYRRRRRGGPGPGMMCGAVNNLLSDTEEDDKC
Assay: Human Cav2.3 channel calcium-influx assay
Format: cell-based
Details: Fluo8 fluorescence, HEK-293 T-Rex/Kir2.1/Cav2.3e cells, without pluronic acid, read-out: Cav2.3 (pIC50) (converted)
Method: HEK-293 T-Rex cells were transfected with pcDNA3.1-Kir2.1 to generate a stable cell line. After antibiotic selection, the obtained stable pools were analysed using FLIPR^TETRA (membrane potential assay), and a limiting dilution was performed and a HEK-293 T-Rex/Kir2.1 clone was selected. […] Data analysis was performed with Genedata Screener® software and reported compounds activity as % effect in relation to the normalization standards. The Kinetic Response Value (KRV) is calculated as follows: […]
Listing of entries alongside the reported log10 IC50.
assay endpoint: log10 IC50 (log10 of the value in nM)

{"compound": "Cc1ccc([C@@H](N(C)S(=O)(=O)c2cncc(C#N)c2)C(F)(F)F)cc1", "quantitative readout": 2.02}
{"compound": "CCN([C@H](c1ccc(F)cc1)C(F)(F)F)S(=O)(=O)c1cc2ncccn2n1", "quantitative readout": 2.84}
{"compound": "CN(C(c1ccc(F)cc1)C(F)(F)F)S(=O)(=O)c1ccc(Cl)s1 (centres unmarked)", "quantitative readout": 3.95}
{"compound": "CCN(C(c1ccc(F)cc1)C(F)(F)F)S(=O)(=O)c1cnnc(OC)c1 (centres unmarked)", "quantitative readout": 2.28}
{"compound": "CCN(C(c1ccc(F)cc1)C(F)(F)F)S(=O)(=O)c1ccc(C2CNC2)s1 (centres unmarked)", "quantitative readout": 2.70}
{"compound": "CCN(C(c1ccc(F)cc1)C(F)(F)F)S(=O)(=O)c1ccc(C(=O)N(C)C)s1 (centres unmarked)", "quantitative readout": 2.45}
{"compound": "CCN([C@H](c1ccc(F)cc1)C(F)(F)F)S(=O)(=O)c1ccc2nnc(C)n2n1", "quantitative readout": 3.34}
{"compound": "N#Cc1cncc(S(=O)(=O)N(CCF)[C@H](c2ccc(F)cc2)C(F)(F)F)c1", "quantitative readout": 1.61}

====

Biological target: Cav2.3 (Homo sapiens, UniProt Q15878)
Assay: Human Cav2.3 channel calcium-influx assay
Type: cell-based
Conditions: Fluo8 fluorescence, HEK-293 T-Rex/Kir2.1/Cav2.3e cells, without pluronic acid, read-out: Cav2.3 (pIC50) (converted)
Experimental: HEK-293 T-Rex cells were transfected with pcDNA3.1-Kir2.1 to generate a stable cell line. After antibiotic selection, the obtained stable pools were analysed using FLIPR^TETRA (membrane potential assay), and a limiting dilution was performed and a HEK-293 T-Rex/Kir2.1 clone was selected. […] Data analysis was performed with Genedata Screener® software and reported compounds activity as % effect in relation to the normalization standards. The Kinetic Response Value (KRV) is calculated as follows: […]
Listing of entries alongside the reported log10 IC50.
assay endpoint: log10 IC50 (log10 of the value in nM)

{"compound": "Cc1ccc([C@@H](N(C)S(=O)(=O)c2cncc(F)c2)C(F)(F)F)cc1", "quantitative readout": 2.39}
{"compound": "Cc1cc([C@@H](N(C)S(=O)(=O)c2cncc(C#N)c2)C(F)(F)F)ccc1C(F)(F)F", "quantitative readout": 2.48}
{"compound": "CCN(C(c1ccc(F)cc1)C(F)(F)F)S(=O)(=O)c1cnc(C(N)=O)s1 (centres unmarked)", "quantitative readout": 2.67}
{"compound": "CN([C@H](c1ccc(Cl)cc1)C(F)(F)F)S(=O)(=O)c1cnc2ccccn12", "quantitative readout": 1.28}
{"compound": "CCN([C@H](c1ccc(F)cc1)C(F)(F)F)S(=O)(=O)c1cnc(C#N)s1", "quantitative readout": 2.94}
{"compound": "CN([C@H](c1ccc(Cl)cc1)C(F)(F)F)S(=O)(=O)c1ccn2ncnc2c1", "quantitative readout": 2.16}
{"compound": "CCN([C@H](c1ccc(F)cc1)C(F)(F)F)S(=O)(=O)c1nn(CC)c2ncccc12", "quantitative readout": 3.00}
{"compound": "CCN([C@H](c1ccc(F)cc1)C(F)(F)F)S(=O)(=O)c1ccn2nnnc2c1", "quantitative readout": 2.44}
